Value source: patent US20090098570A1

Target: T1, His-LXRβ/FLAG-RXRα heterodimer (ligand binding domains of human LXRβ and human RXRα) (human) (UniProt P55055)
T1 sequence 1: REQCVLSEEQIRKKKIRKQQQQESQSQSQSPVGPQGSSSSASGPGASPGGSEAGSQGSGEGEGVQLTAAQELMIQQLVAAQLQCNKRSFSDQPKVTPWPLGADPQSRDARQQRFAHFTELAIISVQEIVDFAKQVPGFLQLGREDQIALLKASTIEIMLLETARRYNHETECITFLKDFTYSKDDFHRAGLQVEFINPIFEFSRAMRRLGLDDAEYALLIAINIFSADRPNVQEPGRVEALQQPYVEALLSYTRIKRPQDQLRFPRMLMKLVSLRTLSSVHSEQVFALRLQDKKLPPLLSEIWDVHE
T1 sequence 2: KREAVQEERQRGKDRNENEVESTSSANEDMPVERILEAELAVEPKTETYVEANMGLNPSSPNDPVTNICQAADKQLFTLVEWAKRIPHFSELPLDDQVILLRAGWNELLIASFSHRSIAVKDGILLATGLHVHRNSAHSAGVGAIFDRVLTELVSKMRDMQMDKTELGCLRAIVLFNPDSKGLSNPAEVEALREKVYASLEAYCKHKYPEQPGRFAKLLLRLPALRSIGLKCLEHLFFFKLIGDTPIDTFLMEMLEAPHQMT
Test: FRET (665/620 nm), anti-His tag antibody + streptavidin, biotinylated peptide; with Compound A, relative to DMSO-only control
No end group written: not given here. *: point of attachment. Biotin = O=C1N[C@H]2[C@H](CS[C@H]2CCCCC(=O)*)N1
We begin with a simple list: items and their reported % of control.
Measurement name: % of control

> print(dat)
                                     binder             value
1  Biotin-GHGEDFSKVSQNPILTSLLQITGNG [TRAP220 peptide … (aa 590-614)]  111 % of control
2  Biotin-KESKDHQLLRYLLDKDEKDL [SRC-1-3 peptide … (the third LXXLL motif from the N-terminal side of SRC-1)]  111 % of control
3  Biotin-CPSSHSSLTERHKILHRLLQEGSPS [SRC-1-2 peptide … (the second LXXLL motif from the N-terminal side of SRC-1)]  120 % of control
4  Biotin-SPAMREAPTSLSQLLDNSGAPNVTIKPPGL [ASC-2 NR-2 peptide … (LXXLL motif on the C-terminal side of ASC-2)]  120 % of control
5  Biotin-KNPTSCSRRFYQLTKLLDSVQPIAR [PNRC peptide … (aa 848-872)]  109 % of control
6  Biotin-HSKASWAEFSILRELLAQDVLCD [PERC NRB2 peptide … (aa 332-354)]  104 % of control
